subject of test: CDK2/cyclin E (Homo sapiens)
experiment description: KinaseProfile radiometric protein kinase assay, CDK2/cyclin E
pIC50: −log10 of the molar value.
measurement kind: pIC50

compound	pIC50
CC(=O)c1c(C)c2cnc(Nc3ccc(N4CCN(S(=O)(=O)NCC(C)(C)N)CC4)cn3)nc2n(C2CCCC2)c1=O	< 5.00

Param item = "CC(=O)c1c(C)c2cnc(Nc3ccc(N4CCN(S(=O)(=O)NCC(C)(C)CN)CC4)cn3)nc2n(C2CCCC2)c1=O" ; retrieve measured pIC50.
< 5.00

Please look up its pIC50: CC(=O)c1c(C)c2c(n(C3CCCC3)c1=O)=NC(Nc1ccc(N3CCN(S(=O)(=O)NCCN)CC3)cn1)NC=2 (stereo not drawn)
< 5.00

Dear colleague, I am looking for the recorded pIC50 of the following compound: CC(=O)c1c(C)c2cnc(Nc3ccc(N4CCN(S(=O)(=O)NCC(C)N)CC4)cn3)nc2n(C2CCCC2)c1=O (stereo not drawn)
< 5.00

Report pIC50 for CC(=O)c1c(C)c2cnc(Nc3ccc(N4CCN(S(=O)(=O)NCC(C)CN)CC4)cn3)nc2n(C2CCCC2)c1=O (stereo not drawn) please.
< 5.52

So what's the measured pIC50 for this one? "CC(=O)c1c(C)c2cnc(Nc3ccc(N4CCN(S(=O)(=O)NCCCN)CC4)cn3)nc2n(C2CCCC2)c1=O"
< 5.52
